Assay: in vitro
Details: human
Counter-ions that a name gives are not always drawn.
I'd be grateful if you could share measured CC50 for these entries.

Query :: Endpoint output: CC50 of CCOC(=O)c1c(C[S+]([O-])c2ccccc2)n(C)c2cc(-c3cccnc3)c(O)c(CN(C)C)c12.Cl.Cl (centres unmarked) [1.1.2(42)] . Value?
Result :: > 100 µM

Query :: Endpoint output: CC50 of CCOC(=O)c1c(CO)n(C)c2cc(-c3cccnc3)c(O)c(CN(C)C)c12.Cl.Cl [1.1.2(35)] . Value?
Result :: > 100 µM

Query :: Endpoint output: CC50 of CCOC(=O)c1c(CN(C)C)n(C)c2cc(-c3cccnc3)c3c(c12)CN(C)CO3 [1.2.5(1c), hydrochloride] . Value?
Result :: 78 µM

Query :: Endpoint output: CC50 of CCOC(=O)c1c(CN(C)C)n(C)c2cc(C#N)c3c(c12)CN(C)CO3 [1.2(29)] . Value?
Result :: > 100 µM

Query :: Endpoint output: CC50 of CCOC(=O)c1c(CSc2ccccc2)n(C)c2cc(C#N)c(O)c(CN(C)C)c12 [1.1(15)] . Value?
Result :: > 100 µM

Query :: Endpoint output: CC50 of CCOC(=O)c1c(CN2CCCC2)n(C)c2cc(-c3cccnc3)c(O)c(CN(C)C)c12 [1.1.5(5c), hydrochloride] . Value?
Result :: > 100 µM

Query :: Endpoint output: CC50 of CCOC(=O)c1c(CN(C)C)n(C)c2cc(-c3cccnc3)c(O)c(CN3CCCC3)c12.Cl.Cl.Cl [1.1.5(2c), hydrochloride] . Value?
Result :: 75 µM

Query :: Endpoint output: CC50 of CCOC(=O)c1c(CN(C)C)n(C)c2cc(-c3ccccc3)c(O)c(Cn3ccnc3)c12.Cl.Cl [1.1.3(7)] . Value?
Result :: > 100 µM

---

Tested on: virus influenza A
Test: microbe, parasite or virus in culture
Assay type: cell-based
Parameters: dose or concentration left out as unconfirmed
Settings: Influenza A virus, MDCK, dilution of virus 10^-3, read-out: % of inhibition of influenza A virus reproduction
So basically: inhibition at 90% or higher? That is true (1). Lower than 90%? That is false (0).

Query :: hey, is inhibition for this one >= 90%? `CCOC(=O)c1c(CSc2ccccc2)n(C)c2cc(-c3cccc(O)c3)c(O)c(CN(C)C)c12`
Result :: false (0)

Query :: hey, is inhibition for this one >= 90%? `CCOC(=O)c1c(CSc2cccs2)n(C)c2cc(Br)c3c(c12)CN(C)CO3`
Result :: true (1)

Query :: hey, is inhibition for this one >= 90%? `CCOC(=O)c1c(CSc2ccccc2)n(C)c2cc(-c3cccc(N(C)C)c3)c(O)c(CN(C)C)c12`
Result :: false (0)

Query :: hey, is inhibition for this one >= 90%? `CCOC(=O)c1c(CSc2ccccc2)n(C)c2cc(-c3ccccc3)c(O)c(CN(C)C)c12`
Result :: true (1)

Query :: hey, is inhibition for this one >= 90%? `CCOC(=O)c1c(CSc2nc3ccccc3s2)n(-c2ccccc2)c2cc(Br)c3c(c12)CN(C)CO3`
Result :: false (0)

Query :: hey, is inhibition for this one >= 90%? `CCOC(=O)c1c(CSc2ccccc2)n(C)c2cc(-c3cc4cc(OC)ccc4[nH]3)c(O)c(CN(C)C)c12`
Result :: false (0)

Query :: hey, is inhibition for this one >= 90%? `CCOC(=O)c1c(CNc2ccccc2)n(C)c2cc(-c3ccncc3)c3c(c12)CN(C)CO3`
Result :: true (1)

Query :: hey, is inhibition for this one >= 90%? `CCOC(=O)c1c(CSc2ccccc2)n(C)c2cc(-c3cncnc3)c(O)c(CN(C)C)c12`
Result :: false (0)

Query :: hey, is inhibition for this one >= 90%? `CCOC(=O)c1c(CSc2ccccc2)n(C)c2cc(C#N)c3c(c12)CN(C)CO3`
Result :: false (0)

Query :: hey, is inhibition for this one >= 90%? `CCOC(=O)c1c(CNc2ccc(Cl)cc2)n(C)c2cc(Br)c3c(c12)CN(C)CO3`
Result :: true (1)

Query :: hey, is inhibition for this one >= 90%? `CCOC(=O)c1c(CN2CCN(c3ccccc3)CC2)n(C2CCCCC2)c2cc(Br)c3c(c12)CN(C)CO3`
Result :: false (0)

Query :: hey, is inhibition for this one >= 90%? `CCOC(=O)c1c(CN2CCN(C)CC2)n(-c2ccccc2)c2ccc3c(c12)CN(C)CO3`
Result :: false (0)

Query :: hey, is inhibition for this one >= 90%? `CCOC(=O)c1c(CSc2ccccc2)n(C)c2cc(-c3ccncc3)c(O)c(CN(C)C)c12`
Result :: true (1)

---

System: virus of hepatitis C strain JFH-1 (genotype 2a)
Test: microbe, parasite or virus in culture
Format: cell-based
Settings: Hepatitis C virus, Huh-7.5.1; Huh7.5.1 cells, HCV JFH-1, 72 hours incubation; read-out: IC50 (IC50^HCV, antiviral activity)
Property Name: pIC50
Please keep in mind that pIC50 is minus log10 of the molar concentration; only the number is needed.

Query :: Endpoint output: pIC50 of `CCOC(=O)c1c(CN(C)C)n(C)c2cc(-c3ccccc3)c(O)c(Cn3ccnc3)c12.Cl.Cl` . Value?
Result :: 4.14

Query :: Endpoint output: pIC50 of `CCOC(=O)c1c(CO)n(C)c2cc(-c3cccnc3)c(O)c(CN(C)C)c12.Cl.Cl` . Value?
Result :: 5.22

---

Test system: virus influenza A
Assay: microbe, parasite or virus in culture
Type: cell-based
Set-up: dose or concentration left out as unconfirmed
Details: Influenza A virus, MDCK, dilution of virus 10^-3, read-out: % of inhibition of influenza A virus reproduction
Property Name: inhibition (%)
Report as a plain number; the unit % is understood.

Query :: Endpoint output: inhibition of `CCOC(=O)c1c(CSc2ccccc2)n(C)c2cc(-c3cc4ccccc4[nH]3)c(O)c(CN(C)C)c12` . Value?
Result :: 66

Query :: Endpoint output: inhibition of `COC(=O)c1c(CSc2ccccc2)n(C)c2cc(Br)c3c(c12)CN(C)CO3` . Value?
Result :: 100

Query :: Endpoint output: inhibition of `CCOC(=O)c1c(COc2ccccc2)n(C)c2cc(-c3cccnc3)c(O)c(CN(C)C)c12` . Value?
Result :: 88

Query :: Endpoint output: inhibition of CCOC(=O)c1c(CSc2ccccc2)n(C)c2cc(-c3cccnc3)c(O)c(CN3CCCC(CO)C3)c12 (stereo not shown) . Value?
Result :: 95

Query :: Endpoint output: inhibition of CCCCC1Oc2c(Br)cc3c(c2CN1C)c(C(=O)OCC)c(CSc1ccccc1)n3C (stereo not shown) . Value?
Result :: 77

Query :: Endpoint output: inhibition of `CCOC(=O)c1c(CSc2ccccc2)n(C)c2cc(-c3cc4ccccc4o3)c(O)c(CN(C)C)c12` . Value?
Result :: 52

Query :: Endpoint output: inhibition of `CCCCN1COc2c(Br)cc3c(c2C1)c(C(=O)OCC)c(CSc1ccccc1)n3C` . Value?
Result :: 95

Query :: Endpoint output: inhibition of `CCOC(=O)c1c(CN2CCN(C)CC2)n(Cc2ccccc2)c2cc(Br)c3c(c12)CN(C)CO3` . Value?
Result :: 92

Query :: Endpoint output: inhibition of `CCOC(=O)c1c(CSc2ccc(Cl)cc2)n(C)c2cc(Br)c3c(c12)CN(C)CO3` . Value?
Result :: 90

Query :: Endpoint output: inhibition of `CCOC(=O)c1c(CSc2ccccc2)n(C)c2cc(-c3cn[nH]c3)c(O)c(CN(C)C)c12` . Value?
Result :: 63

Query :: Endpoint output: inhibition of `CCOC(=O)c1c(CS(=O)(=O)c2ccc(Cl)cc2)n(C)c2cc(Br)c3c(c12)CN(C)CO3` . Value?
Result :: 77

Query :: Endpoint output: inhibition of `CCOC(=O)c1c(CSc2nc3ccccc3[nH]2)n(-c2ccccc2)c2cc(Br)c3c(c12)CN(C)CO3` . Value?
Result :: 65

Query :: Endpoint output: inhibition of `CCOC(=O)c1c(CSc2ccccc2)n(C)c2cc(Br)c3c(c12)CN(CC)CO3` . Value?
Result :: 100

Query :: Endpoint output: inhibition of `CCOC(=O)c1c(CSc2ccccc2)n(C)c2cc(-c3cccnc3)c3c(c12)CN(C)CO3` . Value?
Result :: 100

---

I'd be grateful if you could share measured Therapeutic index SI50 = TC50/IC50 for these entries.
System: virus of hepatitis C strain JFH-1 (genotype 2a)
Test: microbe, parasite or virus in culture
Type: cell-based
Settings: HCV
Counter-ions that a name gives are not always drawn.

Query :: Endpoint output: Therapeutic index SI50 = TC50/IC50 of `CCOC(=O)c1c(CSc2ccccc2)n(C)c2cc(C#N)c(O)c(CN(C)C)c12` . Value?
Result :: >4

Query :: Endpoint output: Therapeutic index SI50 = TC50/IC50 of `CCOC(=O)c1c(CN(C)C)n(C)c2cc(-c3ccccc3)c(O)c(Cn3ccnc3)c12.Cl.Cl` . Value?
Result :: >1.4

Query :: Endpoint output: Therapeutic index SI50 = TC50/IC50 of `CCOC(=O)c1c(CO)n(C)c2cc(-c3cccnc3)c(O)c(CN(C)C)c12.Cl.Cl` . Value?
Result :: >16

Query :: Endpoint output: Therapeutic index SI50 = TC50/IC50 of CCOC(=O)c1c(CN(C)C)n(C)c2cc(-c3cccnc3)c3c(c12)CN(C)CO3 [1.2.5(1c), hydrochloride] . Value?
Result :: 13

Query :: Endpoint output: Therapeutic index SI50 = TC50/IC50 of CCOC(=O)c1c(CN2CCCC2)n(C)c2cc(-c3cccnc3)c(O)c(CN(C)C)c12 [1.1.5(5c), hydrochloride] . Value?
Result :: >20

Query :: Endpoint output: Therapeutic index SI50 = TC50/IC50 of CCOC(=O)c1c(C[S+]([O-])c2ccccc2)n(C)c2cc(-c3cccnc3)c(O)c(CN(C)C)c12.Cl.Cl (stereo not shown) . Value?
Result :: >5

Query :: Endpoint output: Therapeutic index SI50 = TC50/IC50 of `CCOC(=O)c1c(CN(C)C)n(C)c2cc(-c3cccnc3)c(O)c(CN3CCCC3)c12.Cl.Cl.Cl` . Value?
Result :: 11
